Below: a set of entries, each annotated with reported Ratio IC50.
Assay: Resistance index, ratio of IC50 for chloroquine-resistant Plasmodium falciparum RKL9 infected in human RBC to IC50 for chloroquine-sensitive Plasmodium falciparum 3D7 infected in human red blood cells
Assay type: functional
Lab note: record just the number, no unit beside it.

compound | Ratio IC50
CC(=O)N1N=C(c2ccc(OCC3=NCCO3)cc2)CC1c1ccc(Cl)cc1 (stereo not drawn) | 3.06
O=C(/C=C/c1cccc(O)c1)c1ccc(OCC2=NCCO2)cc1 | 3.05

-- ask // Ratio IC50 lookup, key: NS(=O)(=O)c1ccc(N2N=C(c3ccc(OCC4=NCCO4)cc3)CC2c2cccc(Cl)c2)cc1 (stereo not drawn)
-- reply 3.9
